In this section, each of the molecules is paired with its reported inhibition at 15 µM.
# targetOrSystem: HLA-A0201 (Homo sapiens, UniProt P04439, D140Y/D185E/D98H/E176V/E277Q/G131W/G231S/I119V/I121R/I166T/I218V/L300P/L318F/N151K/N90K/P208A/P217A/Q86G/Q94H/R138H/R169H/T345S)
# Construct: expressed in transfected cells; host or cells: HMy2.CIR
# assayDetails: cell-based
# Format: binding
# measurementContext: HLA-A0201 HMy2.CIR cells; competitor peptide 15μM; 24 hours; flow cytometry; read-out: 15μM Inhibition (%)
Residues, ends and D or L forms follow the SMILES beside them.
readoutKind: inhibition at 15 µM (%)

>  <molecule>
CC(C)C[C@H](NC(=O)[C@H](CO)NC(=O)[C@H](CC(C)C)NC(=O)[C@@H](N)Cc1c[nH]c2ccccc12)C(=O)N[C@@H](CC(C)C)C(=O)N[C@H](C(=O)N1CCC[C@H]1C(=O)N[C@@H](Cc1ccccc1)C(=O)N[C@H](C(=O)O)C(C)C)C(C)C [Epitope P7]

>  <displayUnit>
%

>  <reported>
96.4

$$$$
>  <molecule>
CC[C@H](C)[C@H](NC(=O)[C@H](CC(C)C)NC(=O)[C@@H](N)CCCCN)C(=O)NCC(=O)N[C@H](C(=O)N[C@@H](CC(=O)O)C(=O)N[C@@H](CC(N)=O)C(=O)N[C@@H](CO)C(=O)N[C@H](C(=O)O)C(C)C)[C@@H](C)O [Epitope P34] (H-KLIGTDNSV-OH; N-terminus and C-terminus assumed)

>  <displayUnit>
%

>  <reported>
52.3

$$$$
>  <molecule>
CC(C)C[C@H](NC(=O)[C@@H](NC(=O)[C@@H](N)CO)[C@@H](C)O)C(=O)N1CCC[C@H]1C(=O)N[C@@H](CCC(=O)O)C(=O)N[C@H](C(=O)N[C@H](C(=O)N[C@H](C(=O)N[C@H](C(=O)N[C@@H](CCCNC(=N)N)C(=O)O)C(C)C)C(C)C)[C@@H](C)O)[C@@H](C)O [Epitope P42]

>  <displayUnit>
%

>  <reported>
14.2

$$$$
>  <molecule>
CC(C)C[C@H](NC(=O)[C@@H](NC(=O)[C@H](CCC(N)=O)NC(=O)[C@H](Cc1c[nH]cn1)NC(=O)[C@H](C)NC(=O)[C@H](CC(N)=O)NC(=O)[C@@H](NC(=O)[C@@H](N)[C@@H](C)O)C(C)C)C(C)C)C(=O)N1CCC[C@H]1C(=O)N[C@@H](CCCCN)C(=O)O [Epitope P48] (H-TVNAHQVLPK-OH; N-terminus and C-terminus assumed)

>  <displayUnit>
%

>  <reported>
15

$$$$
>  <molecule>
CC[C@H](C)[C@H](N)C(=O)N[C@@H](CC(C)C)C(=O)N[C@@H](CO)C(=O)N[C@H](C(=O)N[C@@H](CC(C)C)C(=O)N1CCC[C@H]1C(=O)N[C@@H](CCC(=O)O)C(=O)N[C@H](C(=O)N[C@H](C(=O)N[C@H](C(=O)O)C(C)C)[C@@H](C)O)[C@@H](C)O)[C@@H](C)O [Epitope P96]

>  <displayUnit>
%

>  <reported>
51

$$$$
>  <molecule>
CC(C)C[C@H](NC(=O)[C@H](CCCCN)NC(=O)[C@H](Cc1c[nH]cn1)NC(=O)[C@H](CCCNC(=N)N)NC(=O)[C@H](CS)NC(=O)CNC(=O)CNC(=O)[C@H](CC(C)C)NC(=O)[C@@H](N)C(C)C)C(=O)O [Epitope P36] (H-VLGGCRHKL-OH; N-terminus and C-terminus assumed)

>  <displayUnit>
%

>  <reported>
37.3

$$$$
>  <molecule>
CC(C)C[C@H](NC(=O)[C@H](Cc1ccccc1)NC(=O)[C@H](Cc1ccccc1)NC(=O)CNC(=O)[C@H](C)NC(=O)[C@@H](N)CCC(N)=O)C(=O)N[C@@H](CC(C)C)C(=O)N[C@H](C(=O)N[C@@H](CCCNC(=N)N)C(=O)O)[C@@H](C)O [Epitope P41] (H-QAGFFLLTR-OH; N-terminus and C-terminus assumed)

>  <displayUnit>
%

>  <reported>
11.4

$$$$
>  <molecule>
CC(C)C[C@H](NC(=O)[C@@H](N)Cc1ccccc1)C(=O)N1CCC[C@H]1C(=O)N[C@@H](CO)C(=O)N[C@@H](CC(=O)O)C(=O)N[C@@H](Cc1ccccc1)C(=O)N[C@@H](Cc1ccccc1)C(=O)N1CCC[C@H]1C(=O)N[C@@H](CO)C(=O)N[C@H](C(=O)O)C(C)C [Epitope P1]

>  <displayUnit>
%

>  <reported>
98.2

$$$$
>  <molecule>
CC(C)C[C@H](NC(=O)[C@H](C)NC(=O)[C@H](CO)NC(=O)[C@H](C)NC(=O)[C@@H](NC(=O)[C@H](CC(=O)O)NC(=O)[C@H](CC(C)C)NC(=O)[C@@H](N)CC(C)C)[C@@H](C)O)C(=O)N[C@@H](Cc1ccc(O)cc1)C(=O)O [Epitope P111]

>  <displayUnit>
%

>  <reported>
14.6

$$$$
>  <molecule>
CC[C@H](C)[C@H](NC(=O)[C@@H](NC(=O)[C@H](CO)NC(=O)[C@H](CC(C)C)NC(=O)[C@H](Cc1c[nH]c2ccccc12)NC(=O)[C@@H](N)C(C)C)C(C)C)C(=O)N[C@@H](Cc1c[nH]c2ccccc12)C(=O)N[C@@H](CCSC)C(=O)N[C@@H](CCSC)C(=O)N[C@@H](Cc1c[nH]c2ccccc12)C(=O)O [Epitope P51] (H-VWLSVIWMMW-OH; N-terminus and C-terminus assumed)

>  <displayUnit>
%

>  <reported>
4.5

$$$$
>  <molecule>
CSCC[C@H](NC(=O)[C@H](CC(N)=O)NC(=O)[C@@H](NC(=O)[C@H](CC(N)=O)NC(=O)[C@@H](NC(=O)[C@H](Cc1ccc(O)cc1)NC(=O)[C@@H](N)CO)C(C)C)[C@@H](C)O)C(=O)NCC(=O)N[C@@H](CC(C)C)C(=O)O [Epitope P22] (H-SYVNTNMGL-OH; N-terminus and C-terminus assumed)

>  <displayUnit>
%

>  <reported>
11

$$$$
>  <molecule>
CC(C)C[C@H](N)C(=O)N[C@@H](Cc1ccc(O)cc1)C(=O)N[C@@H](CO)C(=O)N[C@@H](CO)C(=O)N[C@H](C(=O)N[C@H](C(=O)N1CCC[C@H]1C(=O)N[C@H](C(=O)N[C@@H](Cc1ccccc1)C(=O)O)C(C)C)C(C)C)[C@@H](C)O [Epitope P56] (H-LYSSTVPVF-OH; N-terminus and C-terminus assumed)

>  <displayUnit>
%

>  <reported>
5.03

$$$$

----------
# targetOrSystem: HLA-A2402 (Homo sapiens, UniProt P04439, D101N/D140Y/D185E/E176V/E190D/F33S/G103R/G107R/I119L/I121M/I306V/K335N/L105A/L180Q/L300P/N151K/N90K/Q86E/Q94H/R106L/R138H/R89G/T104I/T345S/V100E/W191G/Y123F)
# assayDetails: cell-based
# Format: binding
Residues, ends and D or L forms follow the SMILES beside them.

>  <compound>
CC(C)C[C@H](NC(=O)[C@H](Cc1ccc(O)cc1)NC(=O)[C@H](CCC(=O)O)NC(=O)[C@H](CC(C)C)NC(=O)[C@@H](NC(=O)[C@@H](NC(=O)[C@@H](N)CCC(=O)O)[C@@H](C)O)C(C)C)C(=O)N[C@H](C(=O)N[C@@H](CO)C(=O)N[C@H](C(=O)O)C(C)C)C(C)C [Epitope P118] (H-ETVLEYLVSV-OH; N-terminus and C-terminus assumed)

>  <IC50>
> 15 µM

$$$$
>  <compound>
CSCC[C@H](NC(=O)[C@@H](N)CCSC)C(=O)N[C@@H](Cc1c[nH]c2ccccc12)C(=O)N[C@@H](Cc1ccccc1)C(=O)N[C@@H](Cc1c[nH]c2ccccc12)C(=O)NCC(=O)N1CCC[C@H]1C(=O)N[C@@H](CO)C(=O)N[C@@H](CC(C)C)C(=O)O [Epitope P71] (H-MMWFWGPSL-OH; N-terminus and C-terminus assumed)

>  <IC50>
< 5 µM

$$$$
>  <compound>
CC(C)C[C@H](NC(=O)[C@H](CO)NC(=O)[C@H](Cc1ccccc1)NC(=O)[C@H](Cc1ccccc1)NC(=O)CNC(=O)[C@H](C)NC(=O)[C@H](CCC(N)=O)NC(=O)[C@@H](N)CC(C)C)C(=O)N[C@H](C(=O)N[C@@H](CCCCN)C(=O)O)[C@@H](C)O [Epitope P103] (H-LQAGFFSLTK-OH; N-terminus and C-terminus assumed)

>  <IC50>
> 15 µM

$$$$

----------
# targetOrSystem: HLA-A1102 (Homo sapiens, UniProt P04439, A114D/D185E/E176A/E43K/F33Y/L180Q/S129P/T187R)
# Construct: expressed in transfected cells; host or cells: HMy2.CIR
# assayDetails: Peptide competitive binding assay, transfected HMy2.CIR cells, reference ATFQFK(FITC)VER
# measurementContext: HLA-A1102 HMy2.CIR cells; competitor peptide 15μM; 24 hours; flow cytometry; read-out: 15μM Inhibition (%)
Residues, ends and D or L forms follow the SMILES beside them.
readoutKind: inhibition at 15 µM (%)

>  <molecule>
CC(C)C[C@H](NC(=O)[C@H](CO)NC(=O)[C@H](Cc1ccccc1)NC(=O)[C@H](Cc1ccccc1)NC(=O)CNC(=O)[C@H](C)NC(=O)[C@H](CCC(N)=O)NC(=O)[C@@H](N)CC(C)C)C(=O)N[C@H](C(=O)N[C@@H](CCCCN)C(=O)O)[C@@H](C)O [Epitope P103] (H-LQAGFFSLTK-OH; N-terminus and C-terminus assumed)

>  <displayUnit>
%

>  <reported>
25.1

$$$$
>  <molecule>
CC(C)C[C@H](NC(=O)[C@H](Cc1ccccc1)NC(=O)[C@H](Cc1ccccc1)NC(=O)CNC(=O)[C@H](C)NC(=O)[C@@H](N)CCC(N)=O)C(=O)N[C@@H](CC(C)C)C(=O)N[C@H](C(=O)N[C@@H](CCCNC(=N)N)C(=O)O)[C@@H](C)O [Epitope P41] (H-QAGFFLLTR-OH; N-terminus and C-terminus assumed)

>  <displayUnit>
%

>  <reported>
9.4

$$$$
>  <molecule>
CC(C)C[C@H](NC(=O)[C@H](Cc1ccccc1)NC(=O)[C@H](C)NC(=O)[C@H](CCCCN)NC(=O)[C@H](Cc1ccc(O)cc1)NC(=O)[C@@H](NC(=O)[C@@H]1CCCN1)[C@@H](C)O)C(=O)N[C@@H](CS)C(=O)N[C@@H](CCCCN)C(=O)O [Epitope P16] (H-PTYKAFLCK-OH; N-terminus and C-terminus assumed)

>  <displayUnit>
%

>  <reported>
27.3

$$$$
>  <molecule>
CSCC[C@H](NC(=O)[C@@H](N)CCSC)C(=O)N[C@@H](Cc1c[nH]c2ccccc12)C(=O)N[C@@H](Cc1ccc(O)cc1)C(=O)N[C@@H](Cc1c[nH]c2ccccc12)C(=O)NCC(=O)N1CCC[C@H]1C(=O)N[C@@H](CO)C(=O)N[C@@H](CC(C)C)C(=O)O [Epitope P72]

>  <displayUnit>
%

>  <reported>
9.54

$$$$
